B1: Ankyrin-3, residues 4094 to 4171; numbered along this chain, Q12955 (parent)
chain: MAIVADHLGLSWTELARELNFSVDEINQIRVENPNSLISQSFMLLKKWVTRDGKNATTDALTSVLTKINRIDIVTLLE

Variants of: B1
Experiment: abundance fitness (aPCA) (normalised: wild type 0, dead -1); higher = more abundant; growth selection in yeast, the domain comes from the species named
Conditions: Homo sapiens
Mark TRUE for reported abundance fitness of -0.3 or greater; mark FALSE for anything smaller.

N55V : TRUE
E32V : FALSE
S39T : TRUE
N35R : TRUE
N20I : FALSE
R30I : TRUE
D24P : FALSE
L76Y : FALSE
M1I : FALSE
V4T : TRUE

Could you verify whether the entry L37S shows abundance fitness of no less than -0.3?
TRUE

Could you verify whether the entry T66H shows abundance fitness of no less than -0.3?
TRUE

Could you verify whether the entry D24Q shows abundance fitness of no less than -0.3?
TRUE

Could you verify whether the entry A56S shows abundance fitness of no less than -0.3?
FALSE

Could you verify whether the entry M1D shows abundance fitness of no less than -0.3?
FALSE

Could you verify whether the entry K54P shows abundance fitness of no less than -0.3?
TRUE
